# Target System: BRD4 bromo domain 1 [BRD4(1)] (Homo sapiens, UniProt O60885)
# Construct: N-terminally His6-tagged BRD4(1) (amino acids 67-152)
# Assay Method Text: BRD4/acetylated peptide H4 binding assay (TR-FRET), BRD4 bromo domain 1
# Condition Details: inhibition of BRD4(1)/Ac-H4 peptide interaction
Measured Attribute: IC50

- Compound: "CC(C)N1c2nc(Nc3cccc(S(=O)(=O)N4CCN(C)CC4)c3)ccc2N(C)C(=O)[C@H]1C [Example 43]"
  Val: "49 nM"
- Compound: "C[C@@H]1C(=O)N(C)c2ccc(Nc3cccc(C(=O)N4CCN(C)CC4)c3)nc2N1Cc1ccccc1 [Example 75]"
  Val: "118 nM"
- Compound: "COc1ccc(Nc2ccc3c(n2)N(C2CCOCC2)[C@H](C)C(=O)N3C)cc1C(=O)N1CCN(C)CC1 [Example 83]"
  Val: "218 nM"
- Compound: "CCN(CC)S(=O)(=O)c1cccc(Nc2ccc3c(n2)N(C2CCOCC2)[C@H](C)C(=O)N3C)c1 [Example 32]"
  Val: "22 nM"
- Compound: "C[C@@H]1C(=O)N(C)c2ccc(Nc3cccc(S(=O)(=O)N4CCN(CC(F)(F)F)CC4)c3)nc2N1C1CCOCC1 [Example 37]"
  Val: "28 nM"
- Compound: "CC(C)N1CCN(C(=O)c2cccc(Nc3ccc4c(n3)N(C3CCCCC3)[C@H](C)C(=O)N4C)c2)CC1 [Example 85]"
  Val: "314 nM"
- Compound: "C[C@@H]1C(=O)N(C)c2ccc(Nc3cccc(C(=O)NC4CCN(C)CC4)c3)nc2N1C1CCCC1 [Example 2]"
  Val: "94 nM"
- Compound: "C[C@@H]1C(=O)N(C)c2ccc(Nc3cccc(C(=O)NC4CCN(C)CC4)c3)nc2N1Cc1ccccc1 [Example 73]"
  Val: "77 nM"
- Compound: "C[C@@H]1C(=O)N(C)c2ccc(Nc3cccc(C(=O)N4CCN(C)CC4)c3)cc2N1C1CCOCC1 [Example 106]"
  Val: "357 nM"
- Compound: "Cc1cccc(N2c3nc(Nc4cccc(S(=O)(=O)N5CCOCC5)c4)ccc3N(C)C(=O)C2C)c1 (stereo not shown) [Example 64]"
  Val: "271 nM"
- Compound: "C[C@@H]1C(=O)N(C)c2ccc(Nc3cccc(C(=O)N(C)C)c3)cc2N1C1CCN(C(=O)OC(C)(C)C)CC1 [Example 105]"
  Val: "208 nM"
- Compound: "CC(C)N1c2nc(Nc3cccc(S(=O)(=O)N[C@H]4CC[C@H](N5CCN(CC6CC6)CC5)CC4)c3)ccc2N(C)C(=O)[C@H]1C [Example 34]"
  Val: "23 nM"
- Compound: "CC(C)N1c2nc(Nc3cccc(C(=O)NCCN(C)C)c3)ccc2N(C)C(=O)[C@H]1C [Example 97]"
  Val: "503 nM"
- Compound: "CC(C)N1c2nc(Nc3cccc(C(=O)N4CCN(CC5CC5)CC4)c3)ccc2N(C)C(=O)[C@H]1C [Example 88]"
  Val: "382 nM"
- Compound: "C[C@@H]1C(=O)N(C)c2ccc(Nc3cccc(S(=O)(=O)N4CCOCC4)c3)nc2N1C1CCN(C)CC1 [Example 47]"
  Val: "21 nM"
- Compound: "C[C@@H]1C(=O)N(C)c2ccc(Nc3cccc(S(=O)(=O)NCC4CCN(C)CC4)c3)nc2N1C1CCOCC1 [Example 44]"
  Val: "50 nM"
- Compound: "C[C@@H]1C(=O)N(C)c2ccc(Nc3cccc(S(=O)(=O)N4CCN(C)CC4)c3)nc2N1C1CCOCC1 [Example 12]"
  Val: "56 nM"
- Compound: "C[C@@H]1C(=O)N(C)c2ccc(Nc3cccc(C(=O)N[C@H]4CC[C@H](N5CCN(CC6CC6)CC5)CC4)c3)nc2N1c1ccc(F)cc1 [Example 93]"
  Val: "466 nM"
- Compound: "C[C@@H]1C(=O)N(C)c2ccc(Nc3cccc(S(=O)(=O)N(C)C)c3)nc2N1C1CCN(C(=O)OC(C)(C)C)CC1 [Example 61]"
  Val: "208 nM"
- Compound: "CC(C)N1c2nc(Nc3cccc(S(=O)(=O)NC4CCN(C)CC4)c3)ccc2N(C)C(=O)[C@H]1C [Example 51]"
  Val: "77 nM"
- Compound: "COc1c(Nc2ccc3c(n2)N(C2CCOCC2)[C@H](C)C(=O)N3C)cccc1C(=O)N1CCN(C)CC1 [Example 92]"
  Val: "452 nM"
- Compound: "C[C@@H]1C(=O)N(C)c2ccc(Nc3cccc(C(=O)N4CCN(C)CC4)c3)nc2N1C1CCCC1 [Example 1]"
  Val: "67 nM"
- Compound: "C[C@@H]1C(=O)N(C)c2ccc(Nc3cccc(C(=O)N[C@H]4CC[C@H](N5CCN(CC6CC6)CC5)CC4)c3)nc2N1C1CCN(C(=O)OC(C)(C)C)CC1 [Example 102]"
  Val: "788 nM"
- Compound: "C[C@@H]1C(=O)N(C)c2ccc(Nc3cccc(S(=O)(=O)N4CCCC4)c3)nc2N1C1CCOCC1 [Example 27]"
  Val: "17 nM"
- Compound: "C[C@@H]1C(=O)N(C)c2ccc(N(C)c3cccc(S(=O)(=O)N(C)C)c3)nc2N1C1CCOCC1 [Example 54]"
  Val: "106 nM"
- Compound: "COc1ccc(C(=O)NCCN(C)C)cc1Nc1ccc2c(n1)N(C1CCOCC1)[C@H](C)C(=O)N2C [Example 19]"
  Val: "234 nM"
- Compound: "CC(C)N1c2nc(Nc3cccc(C(=O)N[C@H]4CC[C@H](N5CCN(CC6CC6)CC5)CC4)c3)ccc2N(C)C(=O)[C@H]1C [Example 79]"
  Val: "193 nM"
- Compound: "C[C@@H]1C(=O)N(C)c2ccc(Nc3cccc(S(=O)(=O)N[C@H]4CC[C@H](N5CCN(CC6CC6)CC5)CC4)c3)nc2N1C1CCOCC1 [Example 35]"
  Val: "26 nM"
